# System: Escherichia coli TOP10
# ASSAY COMMENT: shrunken log2 fold change of peptide-encoding DNA abundance (4.5 h post-induction vs induction); higher = less antimicrobial activity (less host growth inhibition)
# ASSAY SETUP: time post-induction: 4.5 h; library: site-saturation at positions 5, 18, 19, 20
Would you mind labelling by shrunken log2 fold change? At or over -0.08 is Satisfied, under is Not satisfied.

Determine whether this sequence has shrunken log2 fold change no lower than -0.08: `RRIRDRPPRLPRPRPRPFYSPRP` Not satisfied

Determine whether this sequence has shrunken log2 fold change no lower than -0.08: `RRIRWRPPRLPRPRPRPSHRPRP` Not satisfied

Determine whether this sequence has shrunken log2 fold change no lower than -0.08: `RRIRHRPPRLPRPRPRPFIRPRP` Satisfied

Determine whether this sequence has shrunken log2 fold change no lower than -0.08: `RRIRRRPPRLPRPRPRPKIMPRP` Not satisfied

Determine whether this sequence has shrunken log2 fold change no lower than -0.08: `RRIRQRPPRLPRPRPRPIHWPRP` Not satisfied

Determine whether this sequence has shrunken log2 fold change no lower than -0.08: `RRIRRRPPRLPRPRPRPDRPPRP` Satisfied

Determine whether this sequence has shrunken log2 fold change no lower than -0.08: `RRIRPRPPRLPRPRPRPYQHPRP` Not satisfied

Determine whether this sequence has shrunken log2 fold change no lower than -0.08: `RRIRARPPRLPRPRPRPNFTPRP` Satisfied

Determine whether this sequence has shrunken log2 fold change no lower than -0.08: `RRIRDRPPRLPRPRPRPFIQPRP` Not satisfied

Determine whether this sequence has shrunken log2 fold change no lower than -0.08: `RRIRGRPPRLPRPRPRPRWHPRP` Satisfied

Determine whether this sequence has shrunken log2 fold change no lower than -0.08: `RRIRHRPPRLPRPRPRPQFTPRP` Not satisfied

Determine whether this sequence has shrunken log2 fold change no lower than -0.08: `RRIRRRPPRLPRPRPRPMVNPRP` Satisfied

Determine whether this sequence has shrunken log2 fold change no lower than -0.08: `RRIRCRPPRLPRPRPRPTVYPRP` Not satisfied

Determine whether this sequence has shrunken log2 fold change no lower than -0.08: `RRIRQRPPRLPRPRPRPPLCPRP` Satisfied

Determine whether this sequence has shrunken log2 fold change no lower than -0.08: `RRIRERPPRLPRPRPRPHYYPRP` Not satisfied

----------
# Tested on: Escherichia coli TOP10;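 note: peptides expressed intracellularly from a pBAD plasmid library in pooled LB shake-flask culture, induced with 0.3% L-arabinose, DNA abundance read by NGS, three biological replicates, DESeq2 with apeglm shrinkage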
# ASSAY COMMENT: shrunken log2 fold change of peptide-encoding DNA abundance (4.5 h post-induction vs induction); higher = less antimicrobial activity (less host growth inhibition)
# ASSAY SETUP: time post-induction: 4.5 h; library: site-saturation at positions 5, 18, 19, 20
Would you mind labelling by shrunken log2 fold change? At or over 0.04 is label 1, under is label 0.

Determine whether this sequence has shrunken log2 fold change no lower than 0.04: `RRIRARPPRLPRPRPRPWKRPRP` label 1

Determine whether this sequence has shrunken log2 fold change no lower than 0.04: `RRIRWRPPRLPRPRPRPQRLPRP` label 1

Determine whether this sequence has shrunken log2 fold change no lower than 0.04: `RRIRVRPPRLPRPRPRPCICPRP` label 0

Determine whether this sequence has shrunken log2 fold change no lower than 0.04: `RRIRARPPRLPRPRPRPFGAPRP` label 1

Determine whether this sequence has shrunken log2 fold change no lower than 0.04: `RRIRRRPPRLPRPRPRPKEGPRP` label 0

Determine whether this sequence has shrunken log2 fold change no lower than 0.04: `RRIRMRPPRLPRPRPRPDMSPRP` label 0

Determine whether this sequence has shrunken log2 fold change no lower than 0.04: `RRIRLRPPRLPRPRPRPYEQPRP` label 0

Determine whether this sequence has shrunken log2 fold change no lower than 0.04: `RRIRKRPPRLPRPRPRPCDIPRP` label 0

Determine whether this sequence has shrunken log2 fold change no lower than 0.04: `RRIRFRPPRLPRPRPRPREGPRP` label 1

Determine whether this sequence has shrunken log2 fold change no lower than 0.04: `RRIRQRPPRLPRPRPRPNWKPRP` label 1

Determine whether this sequence has shrunken log2 fold change no lower than 0.04: `RRIRNRPPRLPRPRPRPYFRPRP` label 0

Determine whether this sequence has shrunken log2 fold change no lower than 0.04: `RRIRERPPRLPRPRPRPYFQPRP` label 0

Determine whether this sequence has shrunken log2 fold change no lower than 0.04: `RRIRPRPPRLPRPRPRPHIGPRP` label 0

Determine whether this sequence has shrunken log2 fold change no lower than 0.04: `RRIRGRPPRLPRPRPRPPTPPRP` label 1

Determine whether this sequence has shrunken log2 fold change no lower than 0.04: `RRIRFRPPRLPRPRPRPIKYPRP` label 0

Determine whether this sequence has shrunken log2 fold change no lower than 0.04: `RRIRARPPRLPRPRPRPLWTPRP` label 1

Determine whether this sequence has shrunken log2 fold change no lower than 0.04: `RRIRNRPPRLPRPRPRPKMVPRP` label 0

Determine whether this sequence has shrunken log2 fold change no lower than 0.04: `RRIRERPPRLPRPRPRPRMSPRP` label 0

Determine whether this sequence has shrunken log2 fold change no lower than 0.04: `RRIRCRPPRLPRPRPRPRTKPRP` label 1

Determine whether this sequence has shrunken log2 fold change no lower than 0.04: `RRIRVRPPRLPRPRPRPRMRPRP` label 1

Determine whether this sequence has shrunken log2 fold change no lower than 0.04: `RRIRSRPPRLPRPRPRPTEDPRP` label 1

Determine whether this sequence has shrunken log2 fold change no lower than 0.04: `RRIRNRPPRLPRPRPRPSTDPRP` label 0

Determine whether this sequence has shrunken log2 fold change no lower than 0.04: `RRIRARPPRLPRPRPRPRMDPRP` label 1

Determine whether this sequence has shrunken log2 fold change no lower than 0.04: `RRIRFRPPRLPRPRPRPTNDPRP` label 0

Determine whether this sequence has shrunken log2 fold change no lower than 0.04: `RRIRPRPPRLPRPRPRPDRPPRP` label 0

Determine whether this sequence has shrunken log2 fold change no lower than 0.04: `RRIRRRPPRLPRPRPRPTLPPRP` label 1

Determine whether this sequence has shrunken log2 fold change no lower than 0.04: `RRIRTRPPRLPRPRPRPRCFPRP` label 1

Determine whether this sequence has shrunken log2 fold change no lower than 0.04: `RRIRWRPPRLPRPRPRPFCCPRP` label 0

Determine whether this sequence has shrunken log2 fold change no lower than 0.04: `RRIRARPPRLPRPRPRPQLMPRP` label 1

Determine whether this sequence has shrunken log2 fold change no lower than 0.04: `RRIRPRPPRLPRPRPRPTGPPRP` label 1

Determine whether this sequence has shrunken log2 fold change no lower than 0.04: `RRIRWRPPRLPRPRPRPEQNPRP` label 1

Hey, just so you know, these numbers are from the supplement of paper PMC9112550.
